Measured values drawn from ChEMBL document CHEMBL1157539 for this set.

# Test system: Plasmodium falciparum
# Experiment description: GSK_TCMDC: Inhibition of Plasmodium falciparum Dd2 in whole red blood cells, using parasite LDH activity as an index of growth. Test compounds present at 2uM
# Assay type: functional
Each entry below carries its reported Inhibition.
Readout label: Inhibition (%)

molecule="CCCc1ccc(C(=O)N2C(c3nccs3)C(C(N)=O)CC2(CC(C)C)C(=O)O)cc1 (centres undefined)" unit_name=% measured_value=80
molecule=O=C(N[C@@H](CC1CCCCC1)C(=O)NCCN1CCCCC1)c1ccc(O)c(-c2cccc(C(F)(F)F)c2)c1 unit_name=% measured_value=97
molecule=Cc1nc(C)c(-c2ccc(Oc3ccc(Cl)cc3)c(Cl)c2)c(O)c1Br unit_name=% measured_value=96
molecule="Cc1noc(-c2ccc3c(c2)CCN(CCC2CCC(NC(=O)c4cc5ccccc5[nH]4)CC2)CC3)n1.Cl (centres undefined)" unit_name=% measured_value=41
molecule=Cl.OCCNc1nc(Nc2ccccc2)nc2ccccc12 unit_name=% measured_value=61
molecule=CC(C)[C@H](NC(=O)c1ccc(O)c(-c2cccc(C(F)(F)F)c2)c1)C(=O)NCCN1CCCCC1 unit_name=% measured_value=29
molecule="CCCCCCCN1CCC(NC(=O)Nc2ccnc3ccc(OC)cc23)C(C(=O)OCC)C1.O=C(O)C(=O)O (centres undefined)" unit_name=% measured_value=73
molecule=COc1cc(NC(=O)c2ccc(-c3ccccc3)cc2)ccc1OCCCN1CCC(c2ccccc2)CC1.Cl unit_name=% measured_value=30
molecule=COc1ccc(CCN(C)CCCN2CCC(NC(=O)c3cccc4c(=O)c5ccccc5[nH]c34)CC2)cc1OC.O=C(O)C(=O)O unit_name=% measured_value=72
molecule=Cl.NC(=O)c1cnc2cc(-c3ccoc3)ccc2c1Nc1ccc(NC(=O)Nc2ccccc2Cl)cc1 unit_name=% measured_value=76
molecule=NCc1ccc(-c2ccccc2CNC2CCN(Cc3ccccc3)CC2)cc1.O=C(O)C(F)(F)F unit_name=% measured_value=3
molecule="COc1cc(NC(=O)N2CCOC(CCN3CCC(c4ccccc4)CC3)(c3ccc(Cl)c(Cl)c3)C2)cc(OC)c1OC (centres undefined)" unit_name=% measured_value=73
molecule=CN(C)CCOc1ccc(/C(=C(/CCCn2ccnc2)c2ccccc2)c2ccc(O)cc2)cc1 unit_name=% measured_value=99
molecule=COc1ccc(Nc2nc(NCc3cccc(NS(C)(=O)=O)c3)cc(-c3ccc(OC)cc3)n2)cc1 unit_name=% measured_value=5
molecule=CCCNCc1ccc(-c2ccc(CN(CCOC)C(=O)c3ccco3)cc2)nc1.O=C(O)C(F)(F)F unit_name=% measured_value=21
molecule="CCCN(CC1CC1)c1ncc(-c2cccc(CNCCC3CCCN3C)c2)cn1 (centres undefined)" unit_name=% measured_value=43
molecule=O=C(Nc1ccc(CCNCCCc2ccccc2)cc1)Nc1ccc(Cl)c(Cl)c1 unit_name=% measured_value=99
molecule=N#Cc1ccc(NC2(C(=O)N3CCN(c4cccc(Cl)c4)CC3)CC2)c2ccccc12 unit_name=% measured_value=66
molecule=CC1(C)N=C(N)N=C(N)N1c1cc(Cl)c(Cl)cc1Cl.Cl unit_name=% measured_value=0

====

# Tested on: Plasmodium falciparum
# Experiment description: GSK_TCMDC: Inhibition of Plasmodium falciparum Dd2 in whole red blood cells, using parasite LDH activity as an index of growth. Test compounds present at 2uM
# Format: functional
Readout label: Inhibition

item_smiles=CN(C)CCCN1CCN(C(=O)c2cc3cc(-c4ccccc4)ccc3n2S(=O)(=O)c2ccccc2)CC1 readout_label=Inhibition measured_value=94%
item_smiles=Cc1ccc(NC(=O)NC2CCN(c3ccnc4cc(Cl)ccc34)CC2)cc1.O=C(O)C(F)(F)F readout_label=Inhibition measured_value=47%
item_smiles=O=C(O)C(F)(F)F.O=S(=O)(NCCN1CCCC1)c1ccc(-c2ccc(CNCc3ccsc3)cc2)s1 readout_label=Inhibition measured_value=40%
item_smiles=COc1ccc(-c2cc(C(=O)N[C@@H](Cc3ccccc3)C(=O)NCCN3CCCCC3)ccc2O)cc1 readout_label=Inhibition measured_value=0%
item_smiles=Cc1ccc(/C=C/C(=O)NCCCCCN2CCC(c3c[nH]c4ccccc34)CC2)cc1 readout_label=Inhibition measured_value=7%
item_smiles=Cl.O=S(=O)(c1ccc(OCc2ccc(Cl)cc2)cc1)c1cc2c(cc1OCc1ccccc1)CCN(C1CCC1)CC2 readout_label=Inhibition measured_value=13%
item_smiles=CC(C)c1cc(C(=O)N[C@@H](Cc2ccccc2)[C@H](O)CNC2CCCCC2)cc(N2CCCC2=O)c1 readout_label=Inhibition measured_value=98%
item_smiles=COc1ccc(-c2ccc(NC(=O)c3cccs3)cc2)cc1CN1CCCN(C)CC1.O=C(O)C(F)(F)F readout_label=Inhibition measured_value=30%
